- System: U251 CNS
- ASSAY_NAME: NCI tumour cell line growth inhibition, 48 h
Where a SMILES comes first, the peptide text is derived from it. The star is where a group is joined. Boc = CC(C)(C)OC(=O)*
# class assignment by measured TGI: 1: < 20 µM; 2: ≥ 20 µM and < 30 µM; 3: ≥ 30 µM

>>> group("O=C1c2cccc3cc([N+](=O)[O-])cc(c23)C(=O)N1CCCN1CCN(CCCN2C(=O)c3cccc4cc([N+](=O)[O-])cc(c34)C2=O)CC1")
1
>>> group("CCCc1ccc(N=Cc2cc(OC)c(OC)c(OC)c2)cc1")
3
>>> group("C=C1CCCCCCCCCCC1S(=O)c1ccccc1 (stereo unspecified)")
3
>>> group("CC(NC(=O)C(NC(=O)OC(C)(C)C)C(C)C)C(=O)NCC(=O)O (stereo not drawn) (Boc-Val-Ala-Gly-OH; configuration not given here)")
3
>>> group("c1cc(-c2sc(-c3ccncc3)c(-c3ccncc3)c2-c2ccncc2)ccn1")
2
>>> group("CC(SC1=CC(=O)c2c(O)ccc(O)c2C1=O)C(=O)O (stereo unspecified)")
3
>>> group("CC(NCCS(=O)(=O)O)C(=O)O (stereo unspecified)")
3
>>> group("CCC(=O)N1C/C(=C/c2ccc(OC)cc2)C(=O)/C(=C/c2ccc(OC)cc2)C1")
1
>>> group("C/C(=N/O)c1cccc(Nc2nc3ccccc3c3[nH]c4ccccc4c23)c1")
1
>>> group("c1ccc2c(NCCCCCCCCNc3c4ccccc4nc4ccccc34)c3ccccc3nc2c1")
1
>>> group("Cc1ccc(C)c(NC(=O)/C(=N\\NC(N)=S)C(C#N)c2ccccc2)c1 (stereo unspecified)")
3
>>> group("O=c1c(OC/C(=N/O)c2ccccc2)c(-c2ccccc2)oc2ccccc12")
2
>>> group("CN(C)Cc1cc(C(=O)/C=C/c2ccc(/C=C/C(=O)c3cc(CN(C)C)c(O)c(CN(C)C)c3)cc2)cc(CN(C)C)c1O")
3
>>> group("Cc1ccc2c3c1O[C@H]1c4nc5ccccc5cc4C[C@@]4(O)[C@@H](C2)N(CC2CC2)CC[C@]314")
1
>>> group("c1ccc(COc2ccc3[nH]c4c(ncc5[nH]c6ccccc6c54)c3c2)cc1")
2
>>> group("O=C(CSC1=NCCN1)c1ccccc1")
3
>>> group("O=c1[nH]cnc2c1ncn2[C@H]1CO[C@@H](CO)[C@@H]1O")
3
>>> group("Cn1c(=O)c2c(nc3n2CCC(=O)N3)n(C)c1=O")
3
>>> group("CC(C)(C)N=CN1CCC(C(c2ccccc2)c2ccccc2)CC1")
3
>>> group("CC1(C)C2CCC1C(=O)C(C=O)C2 (stereo unspecified)")
3
